Cited source for all entries: patent US4440757A

System: Salmonella typhimurium TA 98
Test: Mutagenicity, reversion assay, TA 98
Type: cell-based
Conditions: 5,000 μg/plate; control 13
Text: (ii) The strains TA 98 and TA 100 (both are histidine requiring) of Salmonella typhimurium were used in the reversion assay. […]
Could you please report measured Number of revertant colonies TA 98 for the items listed next?
Numbers only, in number per plate.

molecule	tgt	unit.info	Number of revertant colonies TA 98
O=C(O)c1ccc(NC2OC[C@H](O)[C@H](O)[C@H]2O)cc1 (stereo partly drawn) [Specimen No. 10, Sodium p-aminobenzoate-N--L-arabinoside]	Salmonella typhimurium TA 98	number per plate	3

Give Number of revertant colonies TA 98 for each listed item.
1. COC(=O)c1ccccc1NC1O[C@H](CO)[C@@H](O)[C@H](O)[C@@H]1O (stereo partly drawn) [Specimen No. 11, Methyl o-aminobenzoate-N--D-mannoside]
2. O=C(O)c1ccc(NC2O[C@H](CO)[C@@H](O)[C@H](O)[C@H]2O)cc1 (stereo partly drawn) [Specimen No. 5, Sodium p-aminobenzoate-N--D-glucoside]

Ans:
1: 8; 2: 11

* * *

Assay: Acute oral toxicity (Litchfield-Wilcoxon)
Settings: in vivo, mouse, 7 days
observable: LD50 at 168 h

These recorded examples may help you get a feel for the data.
molecule	LD50 at 168 h
O=C(O)c1ccc(NC2O[C@H](CO)[C@@H](O)[C@H](O)[C@@H]2O)cc1 (stereo partly drawn) [Specimen No. 4, Sodium p-aminobenzoate-N--D-mannoside]	> 10000 mg/kg
O=C(O)c1ccc(NC2(CO)OC[C@@H](O)[C@@H](O)[C@@H]2O)cc1 (stereo partly drawn) [Specimen No. 9, Sodium p-aminobenzoate-N--D-fructoside]	> 10000 mg/kg
COC(=O)c1ccccc1NC1O[C@H](CO)[C@@H](O)[C@H](O)[C@@H]1O (stereo partly drawn) [Specimen No. 11, Methyl o-aminobenzoate-N--D-mannoside]	> 7500 mg/kg
O=C(O)c1ccc(NC2O[C@H](CO)[C@@H](O)[C@H](O)[C@H]2O)cc1 (stereo partly drawn) [Specimen No. 5, Sodium p-aminobenzoate-N--D-glucoside]	> 15000 mg/kg

Let us examine a further case.
Q: Input O=C(O)c1cccc(NC2O[C@H](CO)[C@@H](O)[C@H](O)[C@@H]2O)c1 (stereo partly drawn) [Specimen No. 3, Sodium m-aminobenzoate-N--D-mannoside] , output reported LD50 at 168 h.
Ans: > 10000 mg/kg
